These entries and their values trace back to ChEMBL document CHEMBL1125322.

METHOD SUMMARY: Compound was tested in vivo for clearance after iv administration in the rat
Format: ADME, organism-based
Square brackets hold non-standard residues; d marks the D form. Peptide text beside a SMILES is read from it. NMeF = CN[C@@H](Cc1ccccc1)C(=O)O; pGlu = O=C1CC[C@@H](C(=O)O)N1
Label criterion met when clearance is strictly below 30 mL/min/kg; at or above that, label criterion not met.

Exercise: # strict comparison: is reported clearance < 30 mL/min/kg? input = CCNC(=O)[C@@H]1CCCN1C(=O)[C@H](CCCN=C(N)N)NC(=O)[C@H](CC(C)C)NC(=O)[C@@H](CC(C)C)NC(=O)[C@H](Cc1ccc(O)cc1)NC(=O)[C@H](CO)NC(=O)[C@H](Cc1ccc(OC)cc1)NC(=O)[C@H](Cc1c[nH]cn1)NC(=O)[C@@H]1CCC(=O)N1
Key: criterion met

Exercise: # strict comparison: is reported clearance < 30 mL/min/kg? input = CCNC(=O)[C@@H]1CCCN1C(=O)[C@H](CCCN=C(N)N)NC(=O)[C@H](CC(C)C)NC(=O)[C@@H](Cc1c[nH]c2ccccc12)NC(=O)[C@H](Cc1ccc(O)cc1)NC(=O)[C@H](CO)NC(=O)[C@H](Cc1c[nH]c2ccccc12)NC(=O)[C@H](Cc1ccccc1)N(C)C(=O)[C@@H]1CCC(=O)N1 ([pGlu][NMeF]WSY[dW]LRP-NHEt)
Key: criterion not met

Exercise: # strict comparison: is reported clearance < 30 mL/min/kg? input = CCNC(=O)[C@@H]1CCCN1C(=O)[C@H](CCCN=C(N)N)NC(=O)[C@H](CC(C)C)NC(=O)[C@@H](Cc1c[nH]c2ccccc12)NC(=O)[C@H](Cc1ccc(O)cc1)NC(=O)[C@H](CO)N(C)C(=O)[C@H](Cc1c[nH]c2ccccc12)NC(=O)[C@H](Cc1c[nH]cn1)NC(=O)CN(C)C(C)=O
Key: criterion met

Exercise: # strict comparison: is reported clearance < 30 mL/min/kg? input = CCNC(=O)[C@@H]1CCCN1C(=O)[C@H](CCCN=C(N)N)NC(=O)[C@H](CC(C)C)NC(=O)[C@@H](CC(C)C)NC(=O)[C@H](Cc1ccc(O)cc1)NC(=O)[C@H](CO)NC(=O)[C@H](Cc1ccc(Cl)cc1)NC(=O)[C@H](Cc1c[nH]cn1)NC(=O)[C@@H]1CCC(=O)N1
Key: criterion met

Exercise: # strict comparison: is reported clearance < 30 mL/min/kg? input = CCNC(=O)[C@@H]1CCCN1C(=O)[C@H](CCCN=C(N)N)NC(=O)[C@H](CC(C)C)NC(=O)[C@@H](CC(C)C)NC(=O)[C@H](Cc1ccc(O)cc1)NC(=O)[C@H](CO)NC(=O)[C@H](Cc1c[nH]c2ccccc12)NC(=O)[C@H](Cc1c[nH]cn1)NC(=O)CN(C)C(C)=O
Key: criterion met
